The reported measurements were obtained from patent US20200317779A1.

Biological target: recombinant cynomolgus monkey CD3ε/δ heterodimer (cynomolgus monkey) (UniProt Q95LI5)
Sequence (Q95LI5 22-117, stated change not applied, chain 1 of 2): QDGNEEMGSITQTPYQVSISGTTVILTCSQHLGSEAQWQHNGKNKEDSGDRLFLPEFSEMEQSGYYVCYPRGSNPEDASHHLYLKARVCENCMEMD
Sequence (Q95LI8 22-105, stated change not applied, chain 2 of 2, further chain): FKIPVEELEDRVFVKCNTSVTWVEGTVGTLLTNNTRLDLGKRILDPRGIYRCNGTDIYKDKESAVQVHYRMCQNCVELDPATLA
Assay: BLI (Octet), antigen on anti-Penta His sensor, antibody 50 nM
Entries annotated with measured Kd
Please state the figure in nM; there is no need to write the unit.

BINDER	READOUT UNITS	Kd
E15 (antibody, human IgG1, lambda, L234A L235A, V domains shown) VH: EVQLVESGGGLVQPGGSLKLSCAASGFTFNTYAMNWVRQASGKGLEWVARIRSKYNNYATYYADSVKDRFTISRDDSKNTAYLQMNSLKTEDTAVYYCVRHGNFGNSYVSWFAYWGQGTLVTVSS VL: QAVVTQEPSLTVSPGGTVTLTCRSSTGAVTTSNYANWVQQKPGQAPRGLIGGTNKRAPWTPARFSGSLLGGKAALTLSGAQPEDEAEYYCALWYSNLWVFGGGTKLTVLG	nM	1.86

Shifting focus to the binder that follows.
IN: May I ask what Kd has been recorded for H15 (antibody, human IgG1, lambda, L234A L235A, V domains shown) VH: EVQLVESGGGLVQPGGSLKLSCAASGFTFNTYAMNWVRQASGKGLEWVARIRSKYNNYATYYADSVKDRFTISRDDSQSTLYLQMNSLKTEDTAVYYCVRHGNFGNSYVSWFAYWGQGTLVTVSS VL: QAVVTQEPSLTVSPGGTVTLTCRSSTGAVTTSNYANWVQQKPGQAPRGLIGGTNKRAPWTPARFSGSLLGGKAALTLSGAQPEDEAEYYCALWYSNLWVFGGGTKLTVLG ?
OUT: 1.17
